Each item that follows carries a reported GI50.
Test system: KM12
Test: NCI tumour cell line growth inhibition, 48 h
Calls of active or inactive are those of the source. No stated cut-off is given here; in the data, active = GI50 up to about 1.1 µM and inactive = higher.

[
  {
    "compound": "Oc1cc(-c2ccccn2)nc2ccc(Cl)cc12",
    "GI50": "24 µM (inactive)"
  },
  {
    "compound": "C[C@]12CC[C@@H]3c4ccc(OP(=O)(O)O)cc4CC[C@H]3[C@@H]1CCC2=O",
    "GI50": "54.5 µM (inactive)"
  },
  {
    "compound": "CCOC(=O)c1cc(NC(=O)N(CCC#N)CCN(C(=O)N[C@@H](Cc2ccccc2)C(=O)N[C@@H](CC(C)C)C(=O)NC)c2ccccc2)ccc1OC",
    "GI50": "> 100 µM (inactive)"
  },
  {
    "compound": "CC(C)(C)[Si](C)(C)OCC1OC(n2cnc3c(=O)[nH]c(N)nc32)C(O[Si](C)(C)C(C)(C)C)C1O[Si](C)(C)C(C)(C)C (centres undefined)",
    "GI50": "1.64 µM (inactive)"
  },
  {
    "compound": "Cc1cccc(-c2nnc(S)[nH]2)c1",
    "GI50": "> 100 µM (inactive)"
  },
  {
    "compound": "COc1ccc(N2C(=O)c3c(c4[nH]c5ccccc5c4c4ccc(C(C)(C)C)cc34)C2=O)cc1",
    "GI50": "64.9 µM (inactive)"
  },
  {
    "compound": "C[n+]1c2ccc(Cl)cc2nc2cc(-c3ccccc3)ccc21",
    "GI50": "4.65 µM (inactive)"
  },
  {
    "compound": "CC(=O)NC1C(CO)O[C@@H]2OC(C)(C)O[C@H]12 (some centres undefined)",
    "GI50": "> 100 µM (inactive)"
  },
  {
    "compound": "O=c1[nH]cnc2sc(=S)c3c(c12)CCC3",
    "GI50": "51.5 µM (inactive)"
  }
]

---

System: U-251
Assay: NCI tumour cell line growth inhibition, 48 h
The source made the active and inactive calls. No stated cut-off is given here; in the data, active = GI50 up to about 1.1 µM and inactive = higher.
Outcome codes: YES (active), NO (inactive)

[
  {
    "compound": "O=C(C=P(c1ccccc1)(c1ccccc1)c1ccccc1)c1ccc(-c2cccs2)cc1",
    "targetOrTestSystem": "U-251",
    "labelClass": "NO"
  },
  {
    "compound": "CC1(C)C=[N+]([O-])C(C)(C)N1",
    "targetOrTestSystem": "U-251",
    "labelClass": "NO"
  },
  {
    "compound": "CCN(CC)c1ccc(/C=C/C(=O)c2cc(C(C)(C)C)c(O)c(C(C)(C)C)c2)cc1",
    "targetOrTestSystem": "U-251",
    "labelClass": "NO"
  },
  {
    "compound": "CC(C)C[C@H](NC(=O)[C@H](Cc1ccccc1)NC(=O)c1cnccn1)B(O)O",
    "targetOrTestSystem": "U-251",
    "labelClass": "YES"
  },
  {
    "compound": "COc1cc2c(cc1OCCCCCOc1cc3c(cc1OC)C(=O)N1CCC[C@H]1C(=O)N3)N=C[C@@H]1CCCN1C2=O",
    "targetOrTestSystem": "U-251",
    "labelClass": "YES"
  },
  {
    "compound": "Clc1ccc(NCNC2Nc3ccccc3N2)cc1Cl",
    "targetOrTestSystem": "U-251",
    "labelClass": "NO"
  },
  {
    "compound": "[N-]=[N+]=NC1C2CC3CC(C2)CC1C3 (stereo unspecified)",
    "targetOrTestSystem": "U-251",
    "labelClass": "NO"
  },
  {
    "compound": "CC(C)=CCNc1ncnc2c1ncn2CCC(=O)O",
    "targetOrTestSystem": "U-251",
    "labelClass": "NO"
  },
  {
    "compound": "Cc1[nH]n(-c2nc3c(c(=O)[nH]2)CCC3)c(=O)c1CCO",
    "targetOrTestSystem": "U-251",
    "labelClass": "NO"
  },
  {
    "compound": "Nc1ccc(Sc2c3ccccc3nc3ccccc23)cc1",
    "targetOrTestSystem": "U-251",
    "labelClass": "NO"
  },
  {
    "compound": "Cc1cccc(-c2nnc(S)[nH]2)c1",
    "targetOrTestSystem": "U-251",
    "labelClass": "NO"
  },
  {
    "compound": "Nc1nc(Cl)cc(NCC2(O)CC2)n1",
    "targetOrTestSystem": "U-251",
    "labelClass": "NO"
  },
  {
    "compound": "O=c1[nH]c2c(nc1NC13CC4CC(CC(C4)C1)C3)c(=O)oc1ccccc12",
    "targetOrTestSystem": "U-251",
    "labelClass": "NO"
  },
  {
    "compound": "Clc1ccc2c(NCCCC/N=C/c3ccccc3)ccnc2c1",
    "targetOrTestSystem": "U-251",
    "labelClass": "NO"
  },
  {
    "compound": "COC(=O)C12OCC34C(CC5C(C)C6=CC(=O)OC6=CC5(C)C3C(O)C1O)OC(=O)C(O)C24 (stereo unspecified)",
    "targetOrTestSystem": "U-251",
    "labelClass": "YES"
  },
  {
    "compound": "CN(C(=O)C12C3C4C1C1C2C3C41C(=O)C(C)(C)C)C(C)(C)C (stereo unspecified)",
    "targetOrTestSystem": "U-251",
    "labelClass": "NO"
  },
  {
    "compound": "CC(=O)N(C(=O)CC(=O)N1N=C(C)C(/N=N/c2cccc([N+](=O)[O-])c2)C1=O)c1ccc(Cl)cc1 (stereo unspecified)",
    "targetOrTestSystem": "U-251",
    "labelClass": "NO"
  },
  {
    "compound": "COc1ccc(N2C(=O)c3c(c4[nH]c5ccccc5c4c4ccc(C(C)(C)C)cc34)C2=O)cc1",
    "targetOrTestSystem": "U-251",
    "labelClass": "NO"
  },
  {
    "compound": "CCOC(=O)c1cc(NC(=O)N(CCC#N)CCN(C(=O)N[C@@H](Cc2ccccc2)C(=O)N[C@@H](CC(C)C)C(=O)NC)c2ccccc2)ccc1OC",
    "targetOrTestSystem": "U-251",
    "labelClass": "NO"
  },
  {
    "compound": "CCOC(=O)c1cccc(NC(=O)CBr)c1",
    "targetOrTestSystem": "U-251",
    "labelClass": "YES"
  },
  {
    "compound": "N#Cc1c(NC(=O)CCC(=O)O)ccc2ccccc12",
    "targetOrTestSystem": "U-251",
    "labelClass": "NO"
  }
]
